meta.source: ChEMBL document CHEMBL1146257

- Experiment summary: Oral bioavailability in rat
- Format: ADME, organism-based
- Experimental parameters: in vivo
Measured parameter: bioavailability (%)
The figure you give is taken to be in %; do not add the unit.

Asked: Given the entry "O=C(N[C@@H](Cc1ccc2nc(-c3c(Cl)cccc3Cl)ccc2c1)C(=O)O)c1c(Cl)cccc1Cl" , report its measured bioavailability.
Given back: 41

----------
- Experiment summary: Oral bioavailability in dog
- Assay type: ADME, organism-based, Canis lupus familiaris
- Experimental parameters: in vivo
Measured parameter: bioavailability (%)
The figure you give is taken to be in %; do not add the unit.

Asked: Given the entry "O=C(N[C@@H](Cc1ccc2nc(-c3c(Cl)cccc3Cl)ccc2c1)C(=O)O)c1c(Cl)cccc1Cl" , report its measured bioavailability.
Given back: 59

----------
- Experiment summary: Oral bioavailability in monkey
- Format: ADME, organism-based, Macaca mulatta
- Experimental parameters: rhesus monkey, in vivo
Measured parameter: bioavailability (%)
The figure you give is taken to be in %; do not add the unit.

Asked: Given the entry "O=C(N[C@@H](Cc1ccc2nc(-c3c(Cl)cccc3Cl)ccc2c1)C(=O)O)c1c(Cl)cccc1Cl" , report its measured bioavailability.
Given back: 23

----------
- Experiment summary: Inhibition of fibronectin binding to VAL4 expressed in Jurkat cells by adhesion test
- Assay type: cell-based, Homo sapiens
Measured parameter: pIC50
Worth noting: pIC50 values are minus log10 of concentrations stated in mol/L.

Asked: Given the entry "O=C(N[C@@H](Cc1ccc2nc(-c3c(Cl)cccc3Cl)ccc2c1)C(=O)O)c1c(Cl)cccc1Cl" , report its measured pIC50.
Given back: 8.80

----------
- Experiment summary: Oral bioavailability in mouse
- Type: ADME, organism-based
- Experimental parameters: in vivo
Measured parameter: bioavailability (%)
The figure you give is taken to be in %; do not add the unit.

Asked: Given the entry "O=C(N[C@@H](Cc1ccc2nc(-c3c(Cl)cccc3Cl)ccc2c1)C(=O)O)c1c(Cl)cccc1Cl" , report its measured bioavailability.
Given back: 35

----------
- Experiment summary: Inhibition of human recombinant VACM1 binding to VAL4 expressed in U937 cells by adhesion test
- Format: cell-based
- Experimental parameters: u-937
In this scheme, each record receives a class according to its IC50; the ranges are class A = under 8 nM, class B = from 8 nM up to 100 nM, class C = 100 nM and over

Asked: Consider COc1ccc2ccccc2c1-c1ccc2cc(CC(NC(=O)c3c(Cl)cccc3Cl)C(=O)O)ccc2n1 (stereo not given) . To which IC50 class does it belong?
Given back: class A

Asked: Same again, this time with O=C(NC(Cc1ccc2nc(-c3c(Cl)cccc3Cl)ccc2c1)C(=O)O)c1ccccc1 (stereo not given)
Given back: class C

Asked: Same again, this time with "COc1cccc(OC)c1-c1ccc(C[C@H](NC(=O)c2c(Cl)cccc2Cl)C(=O)O)cc1"
Given back: class B

Asked: Same again, this time with O=C(NC(Cc1ccc2nc(-c3ccncc3)ccc2c1)C(=O)O)c1c(Cl)cccc1Cl (stereo not given)
Given back: class C

Asked: Same again, this time with O=C(NC(Cc1ccc2nc(-c3ccc(Cl)cc3Cl)ccc2c1)C(=O)O)c1c(Cl)cccc1Cl (stereo not given)
Given back: class C

Asked: Same again, this time with O=C(NC(Cc1ccc2nc(-c3c(Cl)cccc3[N+](=O)[O-])ccc2c1)C(=O)O)c1c(Cl)cccc1Cl (stereo not given)
Given back: class A

Asked: Same again, this time with "O=C(N[C@H](Cc1ccc2nc(-c3c(Cl)cccc3Cl)ccc2c1)C(=O)O)c1c(Cl)cccc1Cl"
Given back: class C

Asked: Same again, this time with O=C(NC(Cc1ccc2nc(-c3ccccc3C(F)(F)F)ccc2c1)C(=O)O)c1c(Cl)cccc1Cl (stereo not given)
Given back: class B

Asked: Same again, this time with O=C(NC(Cc1ccc2nc(-c3c(F)cccc3Cl)ccc2c1)C(=O)O)c1c(Cl)cccc1Cl (stereo not given)
Given back: class B

Asked: Same again, this time with O=C(NC(Cc1ccc2nc(-c3cc(C(F)(F)F)ccc3Cl)ccc2c1)C(=O)O)c1c(Cl)cccc1Cl (stereo not given)
Given back: class C

Asked: Same again, this time with "O=C(N[C@@H](Cc1ccc2nc(-c3c(Cl)cccc3Cl)ccc2c1)C(=O)O)c1c(Cl)cccc1Cl"
Given back: class A

Asked: Same again, this time with CS(=O)(=O)c1ccc(C(=O)NC(Cc2ccc3nc(-c4c(Cl)cccc4Cl)ccc3c2)C(=O)O)c(Cl)c1 (stereo not given)
Given back: class A

Asked: Same again, this time with O=C(NC(Cc1ccc2nc(-c3cc(Cl)nc(Cl)c3)ccc2c1)C(=O)O)c1c(Cl)cccc1Cl (stereo not given)
Given back: class B

Asked: Same again, this time with O=C(NC(Cc1ccc2nc(-c3c(F)cccc3F)ccc2c1)C(=O)O)c1c(Cl)cccc1Cl (stereo not given)
Given back: class C

Asked: Same again, this time with O=C(NC(Cc1ccc2nc(-c3ccccc3Br)ccc2c1)C(=O)O)c1c(Cl)cccc1Cl (stereo not given)
Given back: class C

Asked: Same again, this time with Cc1cccc(Cl)c1C(=O)NC(Cc1ccc2nc(-c3c(Cl)cccc3Cl)ccc2c1)C(=O)O (stereo not given)
Given back: class A

Asked: Same again, this time with O=C(O)C(Cc1ccc2nc(-c3c(Cl)cccc3Cl)ccc2c1)NC(=O)[C@@H]1CCC(=O)N1Cc1ccccc1 (stereo not given in full)
Given back: class B

Asked: Same again, this time with O=C(NC(Cc1ccc2nc(-c3c(Cl)cccc3Cl)ccc2c1)C(=O)O)c1c(F)cccc1F (stereo not given)
Given back: class C

Asked: Same again, this time with O=C(O)C(Cc1ccc2nc(-c3c(Cl)cccc3Cl)ccc2c1)NC(=O)C1(c2ccc(Cl)cc2)CCCC1 (stereo not given)
Given back: class A

Asked: Same again, this time with COc1cccc(OC)c1-c1ccc2cc(CC(NC(=O)c3c(Cl)cccc3Cl)C(=O)O)ccc2n1 (stereo not given)
Given back: class B

Asked: Same again, this time with COc1cccc(OC)c1C(=O)NC(Cc1ccc2nc(-c3c(Cl)cccc3Cl)ccc2c1)C(=O)O (stereo not given)
Given back: class B

Asked: Same again, this time with Cc1cccc(C)c1C(=O)NC(Cc1ccc2nc(-c3c(Cl)cccc3Cl)ccc2c1)C(=O)O (stereo not given)
Given back: class B

----------
- Assayed target: Integrin alpha-4/beta-1 (VLA-4) (Homo sapiens)
- Experiment summary: Inhibition of VCAM binding to integrin alpha4beta1 by human whole blood assay
Measured parameter: IC50 (nM)
The figure you give is taken to be in nM; do not add the unit.

Asked: Lookup: IC50 / Integrin alpha-4/beta-1 (VLA-4) (Homo sapiens) / "O=C(N[C@@H](Cc1ccc2nc(-c3c(Cl)cccc3Cl)ccc2c1)C(=O)O)c1c(Cl)cccc1Cl"
Given back: 95

----------
- Experiment summary: Solubility at pH 7.4
- Format: physicochemical
- Experimental parameters: buffer
Measured parameter: solubility (µg/mL)
The figure you give is taken to be in µg/mL; do not add the unit.

Asked: Given the entry "O=C(N[C@@H](Cc1ccc2nc(-c3c(Cl)cccc3Cl)ccc2c1)C(=O)O)c1c(Cl)cccc1Cl" , report its measured solubility.
Given back: 1.5

----------
- Experiment summary: Distribution coefficient, log D of the compound
- Type: physicochemical
- Experimental parameters: octanol/water
Measured parameter: logD

Asked: Given the entry "O=C(N[C@@H](Cc1ccc2nc(-c3c(Cl)cccc3Cl)ccc2c1)C(=O)O)c1c(Cl)cccc1Cl" , report its measured logD.
Given back: 1.47

----------
Record form. Attribute: IC50. Fill in for each entry.
- Experiment summary: Inhibition of human recombinant VACM1 binding to VAL4 expressed in U937 cells by adhesion test
- Type: cell-based
- Experimental parameters: u-937
The figure you give is taken to be in nM; do not add the unit.

Asked: Given the entry Cc1cc(Cl)c(C(=O)NC(Cc2ccc3nc(-c4c(Cl)cccc4Cl)ccc3c2)C(=O)O)c(Cl)n1 (stereo not drawn) , report its measured IC50.
Given back: 7.9

Asked: Same again, this time with O=C(NC(Cc1ccc2nc(-c3c(Cl)cccc3Cl)ccc2c1)C(=O)O)c1c(Cl)cccc1Cl (stereo not drawn)
Given back: 7.8

Asked: Same again, this time with Cc1cccc(C)c1-c1ccc2cc(CC(NC(=O)c3c(Cl)cccc3Cl)C(=O)O)ccc2n1 (stereo not drawn)
Given back: 102
